Kindly state inhibition for each of the entries shown.
- TGT: Aldo-keto reductase family 1 member B1 (Oryctolagus cuniculus) (UniProt P15122)
- PROTOCOL_DESCRIPTION: Percent inhibition of rabbit lens aldose reductase in vitro at 10E-4 M concentration
One number for each entry, in %.

[
  {
    "COMPOUND": "O=C(O)c1ccc2oc3ccc(S(=O)(=O)O)cc3c(=O)c2c1",
    "VALUE_UNIT": "%",
    "RECORDED_VALUE": 70
  },
  {
    "COMPOUND": "CC(C)NS(=O)(=O)c1ccc2oc3ccc(C(=O)O)cc3c(=O)c2c1",
    "VALUE_UNIT": "%",
    "RECORDED_VALUE": 72
  },
  {
    "COMPOUND": "NS(=O)(=O)c1ccc2oc3ccc(C(=O)O)cc3c(=O)c2c1",
    "VALUE_UNIT": "%",
    "RECORDED_VALUE": 70
  }
]

Query: Find the recorded inhibition belonging to COC(C)c1ccc2oc3ccc(C(=O)O)cc3c(=O)c2c1 (centres undefined) and report it.
Response: 70
